Numbers sourced from patent US9248115B2.

- ASSAY METHOD TEXT: Example 3: plasma pharmacokinetics of free and total silibinin A and B after Legalon SIL infusion (HPLC-UV)
- Assay type: in vivo, human
- PROTOCOL CONDITIONS: human, plasma, intravenous, 20 mg/kg, day 1
For each entry below, report its Tmax value.
// units = h; emit number, no label

Consider COc1cc([C@H]2Oc3cc([C@H]4Oc5cc(O)cc(O)c5C(=O)[C@@H]4O)ccc3O[C@@H]2CO)ccc1O . Its measured Tmax is 3.73

Consider COc1cc([C@@H]2Oc3cc([C@H]4Oc5cc(O)cc(O)c5C(=O)[C@@H]4O)ccc3O[C@H]2CO)ccc1O . Its measured Tmax is 4.03

---

- ASSAY METHOD TEXT: Example 3: plasma pharmacokinetics of free and total silibinin A and B after Legalon SIL infusion (HPLC-UV)
- Format: in vivo, human
- PROTOCOL CONDITIONS: human, plasma, intravenous, 20 mg/kg, day 1; read-out: Vz, free silibinin
For each entry below, report its Vd value.
// units = L/kg; emit number, no label

Consider COc1cc([C@H]2Oc3cc([C@H]4Oc5cc(O)cc(O)c5C(=O)[C@@H]4O)ccc3O[C@@H]2CO)ccc1O [Silibinin A] . Its measured Vd is 51.4

Consider COc1cc([C@@H]2Oc3cc([C@H]4Oc5cc(O)cc(O)c5C(=O)[C@@H]4O)ccc3O[C@H]2CO)ccc1O [Silibinin B] . Its measured Vd is 286
